Consider the following molecules; for each one, report its cytotoxicity at 70.5 h.
- Procedure Summary: Human HepG2 cell viability assay in 384 well format
- Format: toxicity, cell-based
- Design: dose 125 nL, time 70.5 hour; concentration not given beside the values
- Measurement Setup: HepG2 cells, read-out: Inhibition
State the answer as a number, implicitly in %.

Consider CN(C)C(=O)CN1C[C@@H]2CC[C@H](C1)N(Cc1ccccc1C#N)C2 . Its measured cytotoxicity at 70.5 h is -11

Consider CN1CC2(CCN(C(=O)c3ccc4nonc4c3)CC2)CC1=O . Its measured cytotoxicity at 70.5 h is -11.3

Consider O=S(=O)(NCC1OCCc2cn(Cc3ccccn3)nc21)C1CC1 (stereo unspecified) . Its measured cytotoxicity at 70.5 h is -0.93

Consider Cc1ccc(NC(=O)c2nc(N3CCCCC3)ncc2Cl)cc1I . Its measured cytotoxicity at 70.5 h is -7.45

Consider Cc1cc(NCc2csc(-c3ccco3)n2)ccc1C(N)=O . Its measured cytotoxicity at 70.5 h is -6.99

Consider Cc1cnn(CC2CN(CC(=O)Nc3c(C)nn(C)c3C)CCO2)c1 (stereo unspecified) . Its measured cytotoxicity at 70.5 h is -4.95

---

- Procedure Summary: Human HepG2 cell viability assay in 384 well format
- Format: toxicity, cell-based
- Set-up: dose 125 nL, time 70.5 hour; concentration not given beside the values
- Measurement Setup: HepG2 cells, read-out: Inhibition
Consider the following compounds; for each one, report its cytotoxicity at 70.5 h.
State the answer as a number, implicitly in %.

Consider O=C(CCCNc1ncccn1)N1CCCC(n2cccn2)C1 (configuration not stated) . Its measured cytotoxicity at 70.5 h is 34.1

Consider COCCCn1c(CN2CCCCO2)cnc1S(=O)(=O)C1CCCC1 . Its measured cytotoxicity at 70.5 h is -4.4

Consider Cc1cc(S(=O)(=O)N2CCc3ccc(F)cc32)cc(C(=O)O)c1C . Its measured cytotoxicity at 70.5 h is 6.28

Consider N#Cc1ccc(F)c(CNC(=O)NC(CO)Cc2ccccc2)c1 (configuration not stated) . Its measured cytotoxicity at 70.5 h is -3.61

Consider CCN(Cc1ccccc1)C(=O)c1cc(C2CCCN2C)ccn1 (configuration not stated) . Its measured cytotoxicity at 70.5 h is 10.8

Consider FC(F)c1nnc2ccc(N3CCC4(CCOC4)C3)nn12 (configuration not stated) . Its measured cytotoxicity at 70.5 h is 7.83

Consider CNc1cccc(CC2COCCN(C(=O)c3cncs3)C2)n1 (configuration not stated) . Its measured cytotoxicity at 70.5 h is 1.43

Consider COCCN(CC1CC1)c1nc(CCN)nc2ccccc12 . Its measured cytotoxicity at 70.5 h is -4.8

Consider O=C1[C@@H]2CN(C3CCOCC3)C[C@H]2CCN1CC1CC1 . Its measured cytotoxicity at 70.5 h is -10.2

Consider c1ccc(SCCN2CCN(CCn3cncn3)CC2)cc1 . Its measured cytotoxicity at 70.5 h is -22.3

Consider COc1cccc(CCC(=O)Nc2ccn(C)n2)c1OC . Its measured cytotoxicity at 70.5 h is -10

Consider Cc1ccc(C2CCCN(S(=O)(=O)N3CCOCC3)C2)nc1 (configuration not stated) . Its measured cytotoxicity at 70.5 h is -4.54
